experimental.target: Gonadotropin-releasing hormone receptor (Homo sapiens, UniProt P30968)
Sequence (P30968 whole entry): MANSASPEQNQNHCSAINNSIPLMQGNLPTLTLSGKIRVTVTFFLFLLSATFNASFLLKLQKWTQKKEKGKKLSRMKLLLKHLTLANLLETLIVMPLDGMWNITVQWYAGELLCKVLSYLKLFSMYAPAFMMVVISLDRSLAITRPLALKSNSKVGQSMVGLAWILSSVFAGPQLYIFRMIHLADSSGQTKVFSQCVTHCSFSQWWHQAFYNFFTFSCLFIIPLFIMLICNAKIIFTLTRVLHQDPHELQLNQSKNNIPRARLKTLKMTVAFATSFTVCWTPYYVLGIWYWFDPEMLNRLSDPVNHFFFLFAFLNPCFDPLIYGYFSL
assay.procedure: Ability to inhibit [125I-Tyr5,DLeu6,NMeLeu7,Pro9-NEt]GnRH agonist binding to the cloned human Gonadotropin-releasing hormone receptor was evaluated
test.readout: pKi
Note on pKi: it is the negative log10 of concentration, concentration in mol/L.

Could you tell me which pKi is on file for CCCC(=O)Nc1ccc(-c2nc3n(Cc4ccccc4F)cc(C(=O)OC(CC)CC)c(=O)n3c2CN(C)CCOC)cc1 ?
7.44

Look up pKi: CCCC(=O)Nc1ccc(-c2nc3n(Cc4ccccc4F)cc(C(=O)OC(CC)CC)c(=O)n3c2CN(C)Cc2cccnc2)cc1
7.28

Given the molecule CCOC(=O)c1cn(Cc2ccccc2F)c2nc(-c3ccc(OC)cc3)c(CN(C)Cc3ccccc3)n2c1=O , what is its reported pKi?
6.02

Param item = CCCC(=O)Nc1ccc(-c2cn3c(=O)c(C(=O)OC(CC)CC)cn(Cc4ccccc4F)c3n2)cc1 ; retrieve measured pKi.
4.55

So what's the measured pKi for this one? CCCC(=O)Nc1ccc(-c2nc3n(Cc4ccccc4F)cc(C(=O)OC(CC)CC)c(=O)n3c2CN(C)CCc2ccccc2)cc1
7.85

Entry under review: CCCC(=O)Nc1ccc(-c2nc3n(Cc4ccccc4F)cc(C(=O)OCC)c(=O)n3c2CN(C)Cc2ccccc2)cc1 . Reported pKi?
7.10

Would you kindly share the measured pKi for CCCC(=O)Nc1ccc(-c2nc3n(Cc4ccccc4F)cc(C(=O)OC(CC)CC)c(=O)n3c2CN(C)CC#N)cc1 ?
6.52

Could you share which pKi value was measured for CCCC(=O)Nc1ccc(-c2nc3n(Cc4ccccc4F)cc(C(=O)OC(CC)CC)c(=O)n3c2CN(C)CCc2ccccn2)cc1 ?
8.12
